Target: UniProt Q92769
Assay: in vitro biochemical HDAC inhibition assay
Details: Table 2; read-out: IC50 HDAC2
Documented pIC50 across a set of compounds
Note: pIC50 values are expressed as the negative base-10 logarithm of concentration in M.

// solved cases for pIC50 follow
Nc1ccc(-c2cccs2)cc1NC(=O)c1cnc2c(C3CC3)c(N3CCNCC3)ccc2c1    7.85
Nc1ccc(-c2ccccc2)cc1NC(=O)c1cnc2c(C3CC3)c(N3CCNCC3)ccc2c1    7.82
Nc1ccc(-c2ccccc2)cc1NC(=O)c1cnc2c(ccn2CCN2CCOCC2)c1    7.51
Nc1ccc(-c2ccccc2)cc1NC(=O)c1ccc2c(c1)c(C1CC1)cn2CCN1CCOCC1    6.17
COCCOc1cc2ncc(C(=O)Nc3cc(-c4ccccc4)ccc3N)cc2cc1C1CC1    5.81

Query: // query pIC50 value for entry "COCCN(C)c1cc2ncc(C(=O)Nc3cc(-c4cccs4)ccc3N)cc2cc1C1CC1"
Result: 6.18

Query: // query pIC50 value for entry "Nc1ccc(-c2ccccc2)cc1NC(=O)c1ccc2c(c1)cc(C1CC1)n2CCN1CCOCC1"
Result: 7.15

Query: // query pIC50 value for entry "Nc1ccc(-c2ccccc2)cc1NC(=O)c1ccc2nn(CCN3CCOCC3)cc2c1"
Result: 7.64

Query: // query pIC50 value for entry "Nc1ccc(-c2ccccc2)nc1NC(=O)c1cnc2cc(N3CCNCC3)ccc2c1"
Result: 6.47

Query: // query pIC50 value for entry "Nc1ccccc1NC(=O)c1ccc2nc(N3CCNCC3)ccc2c1"
Result: 6.20

Query: // query pIC50 value for entry "Nc1ccc(-c2ccccc2)cc1NC(=O)c1cnc2c(N3CCNCC3)c(C3CC3)ccc2c1"
Result: 7.25

Query: // query pIC50 value for entry "Nc1ccc(-c2cccs2)cc1NC(=O)c1ccc2nc(N3CCNCC3)cnc2c1"
Result: 7.92

* * *

Biological target: HDAC2 (Homo sapiens)
Sequence (Q92769 whole entry): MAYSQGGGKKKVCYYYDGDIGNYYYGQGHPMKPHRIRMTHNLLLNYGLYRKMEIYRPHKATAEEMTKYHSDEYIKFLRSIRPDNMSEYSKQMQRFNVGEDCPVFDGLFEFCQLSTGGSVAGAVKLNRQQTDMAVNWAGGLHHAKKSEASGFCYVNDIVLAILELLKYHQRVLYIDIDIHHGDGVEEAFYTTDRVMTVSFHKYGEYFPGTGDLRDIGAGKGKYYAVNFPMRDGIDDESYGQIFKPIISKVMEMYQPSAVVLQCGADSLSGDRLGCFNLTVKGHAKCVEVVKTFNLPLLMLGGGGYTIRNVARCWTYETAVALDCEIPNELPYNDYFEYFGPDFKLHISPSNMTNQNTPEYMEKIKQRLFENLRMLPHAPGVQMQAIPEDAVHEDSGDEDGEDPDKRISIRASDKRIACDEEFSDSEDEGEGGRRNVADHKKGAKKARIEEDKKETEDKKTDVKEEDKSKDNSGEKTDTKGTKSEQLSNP
Assay: in vitro biochemical HDAC inhibition assay
Details: Table 2; read-out: IC50 HDAC2
Documented IC50 across a set of compounds
Numeric only. Scale: nM

Nc1ccc(-c2ccccc2)cc1NC(=O)c1ccc2c(cnn2CCN2CCOCC2)c1    19
Nc1ccc(-c2ccccc2)cc1NC(=O)c1cnc2c(C3CC3)c(N3CCOCC3)ccc2c1    799
COCCNc1ccc2cc(C(=O)Nc3cc(-c4ccccc4)ccc3N)cnc2c1C1CC1    301

Query: // query IC50 value for entry "CN1CCN(CCn2ccc3cc(C(=O)Nc4cc(-c5ccccc5)ccc4N)ccc32)CC1"
Result: 11

* * *

Molecular target: HDAC1 (Homo sapiens)
Sequence (Q13547 whole entry): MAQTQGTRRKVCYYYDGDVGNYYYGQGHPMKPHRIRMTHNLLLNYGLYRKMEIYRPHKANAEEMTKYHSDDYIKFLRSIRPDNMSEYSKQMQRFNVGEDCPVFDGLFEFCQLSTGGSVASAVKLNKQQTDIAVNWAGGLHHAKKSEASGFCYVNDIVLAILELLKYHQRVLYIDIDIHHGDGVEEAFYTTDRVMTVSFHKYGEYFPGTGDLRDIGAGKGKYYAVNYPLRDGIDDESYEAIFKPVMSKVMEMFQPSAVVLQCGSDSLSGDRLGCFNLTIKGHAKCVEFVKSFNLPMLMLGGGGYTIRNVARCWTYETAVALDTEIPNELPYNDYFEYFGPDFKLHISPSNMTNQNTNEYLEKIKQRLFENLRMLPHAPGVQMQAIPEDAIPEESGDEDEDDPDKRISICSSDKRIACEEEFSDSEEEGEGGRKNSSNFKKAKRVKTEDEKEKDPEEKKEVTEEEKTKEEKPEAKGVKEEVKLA
Assay: in vitro biochemical HDAC inhibition assay
Details: Table 2; read-out: IC50 HDAC1
pIC50: −log10 of the molar value.
Classification field: enter Condition met for pIC50 values not below 8, Condition not met for values below it.

Example results:
Nc1ccc(-c2ccccc2)cc1NC(=O)c1ccc2c(c1)c(C1CC1)cn2CCN1CCOCC1    Condition not met
Nc1ccc(-c2cccs2)cc1NC(=O)c1cnc2c(C3CC3)c(N3CCNCC3)ccc2c1    Condition met

Query: Tell me whether pIC50 is at least 8 here: "Nc1cc(-c2ccccc2)sc1NC(=O)c1cnc2cc(N3CCNCC3)ccc2c1"
Result: Condition not met

Query: Tell me whether pIC50 is at least 8 here: "COCCN(C)c1cc2ncc(C(=O)Nc3cc(-c4ccccc4)ccc3N)cc2cc1C1CC1"
Result: Condition not met

Query: Tell me whether pIC50 is at least 8 here: "COCCNc1cc2ncc(C(=O)Nc3cc(-c4cccs4)ccc3N)cc2cc1C1CC1"
Result: Condition not met

Query: Tell me whether pIC50 is at least 8 here: "Nc1ccc(-c2cccs2)cc1NC(=O)c1ccc2nc(N3CCNCC3)ccc2c1"
Result: Condition met

Query: Tell me whether pIC50 is at least 8 here: "Nc1ccc(-c2ccccc2)cc1NC(=O)c1cnc2c(C3CC3)c(NCc3ccccc3)ccc2c1"
Result: Condition not met

Reference source for all entries: patent US20160137630A1
